The reported measurements were obtained from paper PMC9412414.

# targetDesc: apotransferrin (apo-Tf) (Homo sapiens)
# Construct: purchased Sigma-Aldrich Chemical Co. (Schnelldorf, Germany)
# Sequence (P02787 20-698): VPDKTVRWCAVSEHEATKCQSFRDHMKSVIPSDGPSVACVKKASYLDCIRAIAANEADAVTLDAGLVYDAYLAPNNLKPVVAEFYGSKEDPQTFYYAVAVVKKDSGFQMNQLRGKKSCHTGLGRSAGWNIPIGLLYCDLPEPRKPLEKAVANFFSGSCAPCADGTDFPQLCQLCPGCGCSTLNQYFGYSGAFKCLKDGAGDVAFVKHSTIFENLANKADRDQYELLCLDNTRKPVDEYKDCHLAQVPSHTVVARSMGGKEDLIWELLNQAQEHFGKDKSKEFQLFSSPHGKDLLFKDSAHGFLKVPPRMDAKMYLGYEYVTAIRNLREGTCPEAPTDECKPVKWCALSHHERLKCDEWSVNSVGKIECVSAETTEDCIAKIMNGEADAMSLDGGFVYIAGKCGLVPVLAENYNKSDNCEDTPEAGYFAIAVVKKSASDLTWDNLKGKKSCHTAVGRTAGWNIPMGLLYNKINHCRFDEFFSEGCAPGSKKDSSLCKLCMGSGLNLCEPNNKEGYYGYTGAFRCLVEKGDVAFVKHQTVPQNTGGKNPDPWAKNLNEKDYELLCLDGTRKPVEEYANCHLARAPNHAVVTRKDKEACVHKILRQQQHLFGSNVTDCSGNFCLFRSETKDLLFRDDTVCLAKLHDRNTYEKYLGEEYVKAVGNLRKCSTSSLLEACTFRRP
# protocol: Apo-Tf fluorescence quenching binding study
# cond: apo-Tf 1 µM, 298 K; read-out: Kd (dissociation constant), Apo-Tf
pKd: −log10 of the molar value.
List of pKd values.
readoutType: pKd

INSERT INTO assay_data (entrysmiles, readouttype, assayresult) VALUES
  ('CCn1cc(C(=O)[O-])c(=O)c2ccc(C)nc21.CCn1cc(C(=O)[O-])c(=O)c2ccc(C)nc21.O.O.O.[La+3].[OH-]', 'pKd', 5.27),
  ('CCn1cc(C(=O)[O-])c(=O)c2ccc(C)nc21.CCn1cc(C(=O)[O-])c(=O)c2ccc(C)nc21.O.O.O.O.[Eu+3].[OH-]', 'pKd', 5.15),
  ('CCn1cc(C(=O)O)c(=O)c2ccc(C)nc21', 'pKd', 5.18);
